Test: Acute toxicity (LD50, oral, mice)
Settings: mouse, in vivo, dd-strain male mice 20 to 25 g, fasted overnight, suspended in 0.5% carboxymethyl cellulose, observed seven days
Exercise: state measured LD50 at 168 h for each of the molecules provided.
Give bare numbers, in mg/kg.

>>> print(df.to_string())
                                   molecule       endpoint  value_measured
0  Cc1cc(C(=O)C=NO)on1 [(3-Methylisoxazole-5-yl)glyoxal-2-oxim, (3-methylisoxazole-5-yl)glyoxal-2-oxim]  LD50 at 168 h             890

We now examine a further molecule.
Q: For the molecule shown here, O=C(C=NO)c1cc(-c2ccccc2)no1 [(3-Phenylisoxazole-5-yl)glyoxal-2-oxim, (3-phenylisoxazole-5-yl)glyoxal-2-oxim] , give the reported LD50 at 168 h.
A: 1690

Data origin: patent US4243812A
